- Experimental Target: T1, recombinant human GM-CSF (human, UniProt P04141 18-144)
- T1 construct: also called rhGM-CSF; CSF2
- T1 sequence (P04141 18-144 limits assumed): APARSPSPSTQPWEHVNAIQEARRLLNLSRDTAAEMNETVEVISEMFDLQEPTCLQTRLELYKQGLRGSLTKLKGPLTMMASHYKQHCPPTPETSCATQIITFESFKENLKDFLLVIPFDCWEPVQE
- Method Summary: ELISA on coated rhGM-CSF, UBA relative to 1D2
Experimental Readout: binding affinity % of 1D2 (%)
Output spec: scalar in %, unitless text.

binder 1D2 SDR mutant HQ105L (antibody, IgG1, V domains shown, also called X7 L) VH: QVQLVQSGAEVKKPGASVKVSCEASGYTFTDKYLHWVRQAPGQGLEWMAWINPKSGGTFYAQNFKGRVTVTRDTSINTAYLELTSLRLDDTSTYYCARGRDYYDLGAADLWGQGTMVTVSS VL: DIQLTQSPSSLSASVGDRVTITCRASQGINSVLAWYQQKPGKAPKLLLYAASKLESGVPSRFSGSGSGTDYTLTISSLQPEDFGTYYCQQYYSPVRTFGQGTKVEIKR , binding affinity % of 1D2 observed: 63

binder 1D2 SDR mutant HY103P (antibody, IgG1, V domains shown, also called X6 P) VH: QVQLVQSGAEVKKPGASVKVSCEASGYTFTDKYLHWVRQAPGQGLEWMAWINPKSGGTFYAQNFKGRVTVTRDTSINTAYLELTSLRLDDTSTYYCARGRDYPDQGAADLWGQGTMVTVSS VL: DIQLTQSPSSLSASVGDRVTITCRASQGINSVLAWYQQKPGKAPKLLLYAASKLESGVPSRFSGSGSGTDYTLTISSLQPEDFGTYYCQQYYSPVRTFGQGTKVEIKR , binding affinity % of 1D2 observed: 141

binder 1D2 SDR mutant HK54G (antibody, IgG1, V domains shown, also called X3 G) VH: QVQLVQSGAEVKKPGASVKVSCEASGYTFTDKYLHWVRQAPGQGLEWMAWINPGSGGTFYAQNFKGRVTVTRDTSINTAYLELTSLRLDDTSTYYCARGRDYYDQGAADLWGQGTMVTVSS VL: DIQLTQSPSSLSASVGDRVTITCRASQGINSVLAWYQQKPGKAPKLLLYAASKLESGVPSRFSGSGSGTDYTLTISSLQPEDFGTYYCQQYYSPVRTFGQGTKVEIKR , binding affinity % of 1D2 observed: 114

binder 1D2 SDR mutant HQ105G (antibody, IgG1, V domains shown, also called X7 G) VH: QVQLVQSGAEVKKPGASVKVSCEASGYTFTDKYLHWVRQAPGQGLEWMAWINPKSGGTFYAQNFKGRVTVTRDTSINTAYLELTSLRLDDTSTYYCARGRDYYDGGAADLWGQGTMVTVSS VL: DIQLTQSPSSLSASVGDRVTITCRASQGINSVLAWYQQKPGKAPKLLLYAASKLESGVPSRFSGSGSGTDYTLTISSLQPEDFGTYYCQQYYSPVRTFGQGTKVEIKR , binding affinity % of 1D2 observed: 105

binder 1D2 SDR mutant HK54W (antibody, IgG1, V domains shown, also called X3 W) VH: QVQLVQSGAEVKKPGASVKVSCEASGYTFTDKYLHWVRQAPGQGLEWMAWINPWSGGTFYAQNFKGRVTVTRDTSINTAYLELTSLRLDDTSTYYCARGRDYYDQGAADLWGQGTMVTVSS VL: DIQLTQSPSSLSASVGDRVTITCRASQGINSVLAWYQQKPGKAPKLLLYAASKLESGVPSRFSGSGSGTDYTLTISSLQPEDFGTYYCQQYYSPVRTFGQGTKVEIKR , binding affinity % of 1D2 observed: 88
